experiment: Dynamic bulk density (fluidisability) of salmeterol xinafoate powders; assay type: physicochemical; conditions: powder
Measure: Dynamic Bulk Density W (g · cm^−3)
Value expressed in g · cm^−3; do not type the unit.

Compound	Numeric value
OCc1cc(C(O)CNCCCCCCOCCCCc2ccccc2)ccc1O (stereo not shown) [Conventionally crystallised salmeterol xinafoate (micronised] [reference compound]	0.137
OCc1cc(C(O)CNCCCCCCOCCCCc2ccccc2)ccc1O (stereo not shown) [SCF salmeterol xinafoate (sample 1), salmeterol xinafoate]	0.033
OCc1cc(C(O)CNCCCCCCOCCCCc2ccccc2)ccc1O (stereo not shown) [SCF salmeterol xinafoate (sample 2), salmeterol xinafoate]	0.059

Asked: What value of Dynamic Bulk Density W has been recorded for this entry: OCc1cc(C(O)CNCCCCCCOCCCCc2ccccc2)ccc1O (stereo not shown) [conventionally crystallised salmeterol xinafoate (non-micron] [reference compound]
Given back: 0.312
